Recorded effect (kill in %) values for a group of compounds are listed next.
Tested on: Haemonchus contortus
Test: Haemonchus contortus test (HAEMCO), larval kill
Type: in vivo
Settings: application rate 20 ppm; after 5 days; about 40 larvae

[
  {
    "compound": "O=C(NCCOc1ccc(C(F)(F)F)cn1)c1c(F)cccc1F [1-45]",
    "measurement_units": "%",
    "effect (kill in %)": 90
  },
  {
    "compound": "O=C(NCCOc1ncc(Cl)cc1Cl)c1c(F)cccc1F [1-19]",
    "measurement_units": "%",
    "effect (kill in %)": 90
  },
  {
    "compound": "O=C(NCCOc1ccc(C(F)(F)F)cn1)c1ccccc1Br [1-43]",
    "measurement_units": "%",
    "effect (kill in %)": 90
  },
  {
    "compound": "O=C(NCCOc1ccc(Cl)cn1)c1c(F)cccc1F [1-35]",
    "measurement_units": "%",
    "effect (kill in %)": 80
  },
  {
    "compound": "O=C(NCCOc1ncc(C(F)(F)F)cc1Cl)c1c(F)cccc1F [1-52]",
    "measurement_units": "%",
    "effect (kill in %)": 90
  },
  {
    "compound": "O=C(NCCOc1ncc(C(F)(F)F)cc1Cl)c1ccccc1I [1-28]",
    "measurement_units": "%",
    "effect (kill in %)": 100
  },
  {
    "compound": "O=C(NC1(COc2ccc(C(F)(F)F)cn2)CC1)c1ccccc1C(F)(F)F [1-173]",
    "measurement_units": "%",
    "effect (kill in %)": 100
  },
  {
    "compound": "COc1ncccc1C(=O)NCCOc1ncc(C(F)(F)F)cc1Cl [1-155]",
    "measurement_units": "%",
    "effect (kill in %)": 100
  },
  {
    "compound": "Cc1ccccc1C(=O)NCCOc1ncc(C(F)(F)F)cc1Cl [1-29]",
    "measurement_units": "%",
    "effect (kill in %)": 80
  },
  {
    "compound": "CC(C)(COc1ncc(Cl)cc1Cl)NC(=O)c1ccccc1C(F)(F)F [1-82]",
    "measurement_units": "%",
    "effect (kill in %)": 90
  }
]

---

System: Cooperia curticei
Experiment: Cooperia curticei test (COOPCU), larval kill
Type: in vivo
Settings: application rate 20 ppm; after 5 days; about 40 nematode larvae
Recorded effect (kill in %) values for a group of compounds are listed next.

[
  {
    "compound": "O=C(NC1(COc2ccc(C(F)(F)F)cn2)CC1)c1c(F)cccc1F",
    "effect (kill in %)": 100
  },
  {
    "compound": "O=C(NCCOc1ncc(C(F)(F)F)cc1Cl)c1ccccc1Br",
    "effect (kill in %)": 90
  },
  {
    "compound": "CC(C)(COc1ncc(Cl)cc1Cl)NC(=O)c1ccccc1C(F)(F)F",
    "effect (kill in %)": 90
  },
  {
    "compound": "N#Cc1cnc(OCCNC(=O)c2ccccc2C(F)(F)F)c(F)c1",
    "effect (kill in %)": 90
  },
  {
    "compound": "CC(C)(COc1ccc(C(F)(F)F)cn1)NC(=O)c1ccccc1C(F)(F)F",
    "effect (kill in %)": 80
  },
  {
    "compound": "COc1ncccc1C(=O)NCCOc1ncc(C(F)(F)F)cc1Cl",
    "effect (kill in %)": 80
  },
  {
    "compound": "O=C(NC1(COc2ccc(C(F)(F)F)cn2)CC1)c1ccccc1C(F)(F)F",
    "effect (kill in %)": 100
  },
  {
    "compound": "O=C(NC1(COc2ncc(C(F)(F)F)cc2Cl)CC1)c1ccccc1C(F)(F)F",
    "effect (kill in %)": 80
  },
  {
    "compound": "O=C(NC1(COc2ncc(C(F)(F)F)cc2Cl)CC1)c1ccccc1I",
    "effect (kill in %)": 100
  },
  {
    "compound": "O=C(NCCOc1ncc(C(F)(F)F)cc1Cl)c1ccccc1C(F)(F)F",
    "effect (kill in %)": 100
  },
  {
    "compound": "O=C(NC1(COc2ccc(C(F)(F)F)cn2)CC1)c1ccccc1Br",
    "effect (kill in %)": 90
  },
  {
    "compound": "O=C(NCCOc1ncc(C(F)(F)F)cc1Cl)c1ccccc1Cl",
    "effect (kill in %)": 80
  },
  {
    "compound": "CC(COc1ncc(C(F)(F)F)cc1Cl)NC(=O)c1ccccc1C(F)(F)F (stereo not drawn)",
    "effect (kill in %)": 100
  },
  {
    "compound": "O=C(NCCOc1ccc(C(F)(F)F)cn1)c1sccc1I",
    "effect (kill in %)": 80
  },
  {
    "compound": "O=C(NCCOc1ncc(C(F)(F)F)cc1Cl)c1cccnc1C(F)(F)F",
    "effect (kill in %)": 80
  },
  {
    "compound": "Cc1ccccc1C(=O)NCCOc1ncc(C(F)(F)F)cc1Cl",
    "effect (kill in %)": 80
  },
  {
    "compound": "O=C(NCCOc1ncc(C(F)(F)F)cc1Cl)c1ccccc1I",
    "effect (kill in %)": 100
  },
  {
    "compound": "CC(CNC(=O)c1ccccc1C(F)(F)F)Oc1ncc(C(F)(F)F)cc1Cl (stereo not drawn)",
    "effect (kill in %)": 90
  }
]
